Where do these numbers come from? They come from ChEMBL document CHEMBL2449286.

Biological target: ATP-dependent translocase ABCB1 (Homo sapiens)
Sequence (P08183 whole entry): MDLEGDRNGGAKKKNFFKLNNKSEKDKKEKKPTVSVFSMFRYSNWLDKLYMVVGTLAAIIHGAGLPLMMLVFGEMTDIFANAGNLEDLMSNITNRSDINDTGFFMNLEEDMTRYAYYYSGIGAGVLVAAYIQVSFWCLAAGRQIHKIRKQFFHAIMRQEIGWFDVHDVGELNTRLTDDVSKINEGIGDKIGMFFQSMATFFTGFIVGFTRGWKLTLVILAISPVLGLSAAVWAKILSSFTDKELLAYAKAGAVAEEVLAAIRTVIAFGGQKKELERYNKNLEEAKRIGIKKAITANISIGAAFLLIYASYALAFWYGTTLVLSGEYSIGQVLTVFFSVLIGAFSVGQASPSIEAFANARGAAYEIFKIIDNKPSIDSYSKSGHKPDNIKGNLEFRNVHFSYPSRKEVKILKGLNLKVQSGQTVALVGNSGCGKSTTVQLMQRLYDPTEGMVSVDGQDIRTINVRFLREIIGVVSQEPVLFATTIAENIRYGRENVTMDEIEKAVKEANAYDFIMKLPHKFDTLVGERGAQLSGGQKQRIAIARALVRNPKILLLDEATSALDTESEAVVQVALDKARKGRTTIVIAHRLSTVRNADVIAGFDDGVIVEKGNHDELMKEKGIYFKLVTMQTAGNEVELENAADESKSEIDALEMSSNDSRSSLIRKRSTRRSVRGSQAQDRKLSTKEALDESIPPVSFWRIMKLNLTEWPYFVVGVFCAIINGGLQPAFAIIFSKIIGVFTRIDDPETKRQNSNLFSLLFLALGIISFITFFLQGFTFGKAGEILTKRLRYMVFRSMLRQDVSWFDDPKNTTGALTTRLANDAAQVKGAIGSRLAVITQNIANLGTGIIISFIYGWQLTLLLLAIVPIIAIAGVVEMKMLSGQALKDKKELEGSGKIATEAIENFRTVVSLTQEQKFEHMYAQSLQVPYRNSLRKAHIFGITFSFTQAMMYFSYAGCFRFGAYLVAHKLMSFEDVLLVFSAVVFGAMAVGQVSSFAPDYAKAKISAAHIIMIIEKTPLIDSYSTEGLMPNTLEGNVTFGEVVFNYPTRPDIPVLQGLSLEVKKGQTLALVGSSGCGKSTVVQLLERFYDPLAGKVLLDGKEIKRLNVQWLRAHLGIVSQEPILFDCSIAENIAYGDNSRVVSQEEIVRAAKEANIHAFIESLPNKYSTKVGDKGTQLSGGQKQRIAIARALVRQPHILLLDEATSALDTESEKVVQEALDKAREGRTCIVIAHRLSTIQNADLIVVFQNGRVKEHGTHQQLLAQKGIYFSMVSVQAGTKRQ
pEC50: −log10 of the molar value.
Hi, to clarify the labels: rule met covers pEC50 from 6 upward, rule not met covers anything below 6.

Evaluate "O=C(CCc1cccc2ccccc12)c1ccccc1OC[C@H](O)CN1CCCCC1" : pEC50 at minimum 6?
rule met

Evaluate "CC(C)[C@@H](CO)N[C@@H]1c2cc(C#N)ccc2OC(C)(C)[C@H]1O" : pEC50 at minimum 6?
rule not met

Evaluate "CC(C)[C@@H](CCl)N(C)[C@H]1c2cc(C#N)ccc2OC(C)(C)[C@@H]1O" : pEC50 at minimum 6?
rule not met

Evaluate "CO[C@H](CCc1ccccc1)c1ccccc1OC[C@H](O)CN1CCOCC1" : pEC50 at minimum 6?
rule not met

Evaluate "O=C(CCc1ccccc1)c1ccccc1OC[C@H](O)CN1CCC(Cc2ccccc2)CC1" : pEC50 at minimum 6?
rule met

***
Evaluate "Cc1ccccc1N1CCN(C[C@@H](O)COc2ccc(Cl)cc2C(=O)CCc2ccccc2)CC1" : pEC50 at minimum 6?
rule met

Evaluate "O=C(CCc1ccccc1)c1cccc(OC[C@H](O)CN2CCCCC2)c1" : pEC50 at minimum 6?
rule met

Evaluate "O=C(CCc1ccccc1)c1cc(OCc2ccccc2)ccc1OC[C@H](O)CN1CCCCC1" : pEC50 at minimum 6?
rule met

Evaluate "CC(=O)c1cc(C)ccc1OC[C@H](O)CN(C(C)C)C(C)C" : pEC50 at minimum 6?
rule not met

###

Reported pEC50 values, ATP-dependent translocase ABCB1 (Homo sapiens, UniProt P08183).
Value format note: pEC50 is -log10 of concentration (mol/L); just state the number.

These recorded examples may help you get a feel for the data.
Observed pEC50, ATP-dependent translocase ABCB1 (Homo sapiens, UniProt P08183), "CC(C)[C@H]1N[C@H]2c3cc(C#N)ccc3OC(C)(C)[C@@H]2OC1=O" : 5.02

Observed pEC50, ATP-dependent translocase ABCB1 (Homo sapiens, UniProt P08183), "CO[C@H](CCc1ccccc1)c1ccccc1OC[C@H](O)CN(C(C)C)C(C)C" : 6.18

Observed pEC50, ATP-dependent translocase ABCB1 (Homo sapiens, UniProt P08183), "CCC(=O)c1ccccc1OC[C@H](O)CN1CCCCC1" : 4.84

Observed pEC50, ATP-dependent translocase ABCB1 (Homo sapiens, UniProt P08183), "CN1CCO[C@@H]2[C@@H]1c1cc(C#N)ccc1OC2(C)C" : 4.21

Observed pEC50, ATP-dependent translocase ABCB1 (Homo sapiens, UniProt P08183), "COc1ccc(C(=O)CCc2ccc(N(C)C)cc2)c(OC[C@H](O)CN2CCN(c3ccccc3C)CC2)c1" : 7.40

***
Observed pEC50, ATP-dependent translocase ABCB1 (Homo sapiens, UniProt P08183), "C[C@H]1C(=O)O[C@H]2[C@@H](c3cc(C#N)ccc3OC2(C)C)N1C" : 4.32

Observed pEC50, ATP-dependent translocase ABCB1 (Homo sapiens, UniProt P08183), "CC(=O)c1ccc(OC[C@H](O)CN2CCN(c3ccccc3C)CC2)cc1" : 5.81

Observed pEC50, ATP-dependent translocase ABCB1 (Homo sapiens, UniProt P08183), "O[C@@H](COc1ccccc1[C@H](O)CCc1ccccc1)CN1CCOCC1" : 5.02

Observed pEC50, ATP-dependent translocase ABCB1 (Homo sapiens, UniProt P08183), "CCC(=O)c1ccc(OC[C@H](O)CN(C(C)C)C(C)C)cc1" : 5.11

Observed pEC50, ATP-dependent translocase ABCB1 (Homo sapiens, UniProt P08183), "O=C(c1ccccc1)c1ccccc1OC[C@H](O)CN1CCC(O)(c2ccccc2)CC1" : 6.51

###

Biological target: ATP-dependent translocase ABCB1 (Homo sapiens)
Classify: TRUE when EC50 is strictly less than 5 µM; FALSE when EC50 is not.

Confirm or reject: EC50 of "CCCN(C)C[C@@H](O)COc1ccccc1C(=O)CCc1ccccc1" lies strictly below 5 µM
TRUE

Confirm or reject: EC50 of "COc1ccc([C@@H]2Nc3ccccc3C(=O)N2c2ccc(NC(C)=O)cc2)cc1" lies strictly below 5 µM
FALSE

Confirm or reject: EC50 of "O=C(c1ccccc1)c1ccccc1OC[C@H](O)CN1CCN(c2ccc(F)cc2)CC1" lies strictly below 5 µM
TRUE

Confirm or reject: EC50 of "CCOc1ccc(N2C(=O)c3ccccc3N[C@H]2c2ccc(N(C)C)cc2)cc1" lies strictly below 5 µM
FALSE

Confirm or reject: EC50 of "C[C@@H]1N[C@H]2c3cc(C#N)ccc3OC(C)(C)[C@@H]2OC1=O" lies strictly below 5 µM
FALSE

Confirm or reject: EC50 of "CO[C@@H](CCc1ccccc1)c1ccccc1OC[C@H](O)CN1CCN(c2ccccc2C)CC1" lies strictly below 5 µM
TRUE

Confirm or reject: EC50 of "O=C(c1ccccc1)c1cccc(OC[C@H](O)CN2CCCCC2)c1" lies strictly below 5 µM
TRUE

Confirm or reject: EC50 of "CN(CCO)[C@H]1c2cc(C#N)ccc2OC(C)(C)[C@@H]1O" lies strictly below 5 µM
FALSE

***
Confirm or reject: EC50 of "CCc1ccc(N2C(=O)c3ccccc3N[C@H]2c2ccc(OCC(C)C)cc2)cc1" lies strictly below 5 µM
TRUE

Confirm or reject: EC50 of "C[C@H]1c2ccccc2O[C@H]1CN1CCCCC1" lies strictly below 5 µM
FALSE

Confirm or reject: EC50 of CC(NC1c2cc(C#N)ccc2OC(C)(C)C1O)C(=O)OC(C)(C)C (configuration not stated) lies strictly below 5 µM
FALSE

###

Reported pEC50 values, ATP-dependent translocase ABCB1 (Homo sapiens, UniProt P08183).
Value format note: pEC50 is -log10 of concentration (mol/L); just state the number.

The recorded pEC50 for entry "O=C(CCc1ccccc1)c1ccccc1OC[C@H](O)CNc1ccc(C(F)(F)F)cc1" equals 5.07

The recorded pEC50 for entry "CC(=O)c1cccc(OC[C@H](O)CN2CCN(c3cccc(C)c3C)CC2)c1" equals 6.42

The recorded pEC50 for entry "C[C@@H]1N[C@@H]2c3cc(C#N)ccc3OC(C)(C)[C@H]2OC1=O" equals 2.91

The recorded pEC50 for entry "COC(=O)c1ccc(NC[C@@H](O)COc2ccccc2C(=O)CCc2ccccc2)cc1" equals 5.81

The recorded pEC50 for entry "Cc1c(C(=O)c2cccs2)c(=O)n(-c2ccccc2)n1C[C@H](O)CNC(C)(C)C" equals 4.14

###

Reported EC50 values, ATP-dependent translocase ABCB1 (Homo sapiens, UniProt P08183).
Report as a plain number; the unit µM is understood.

These recorded examples may help you get a feel for the data.
The recorded EC50 for entry O=C(CCc1cccc2ccccc12)c1cccc(OCC(O)CN2CCN(c3ccc(F)cc3)CC2)c1 (stereo unspecified) equals 0.158

The recorded EC50 for entry "CCCNC[C@@H](O)Cn1c(C)c(C(=O)c2cccs2)c(=O)n1-c1ccccc1" equals 95.5

The recorded EC50 for entry "CC(C)[C@H](C(=O)OC(C)(C)C)N(C)[C@@H]1c2cc(C#N)ccc2OC(C)(C)[C@H]1O" equals 1

The recorded EC50 for entry "CCCNC[C@@H](O)COc1ccc(OCc2ccccc2)cc1C(=O)CCc1ccccc1" equals 0.11

The recorded EC50 for entry "O=C1c2c(cccc2OC[C@H](O)CN2CCCCC2)C[C@@H]1Cc1ccccc1" equals 0.214

The recorded EC50 for entry "CC(C)[C@@H]1N[C@H]2c3cc(C#N)ccc3OC(C)(C)[C@@H]2OC1=O" equals 58.9

The recorded EC50 for entry "CC(C)[C@H](NC[C@@H](O)COc1ccccc1C(=O)CCc1ccccc1)c1ccccc1" equals 0.209

The recorded EC50 for entry "COc1ccc(N2CCN(C[C@@H](O)COc3ccccc3C(=O)CCc3ccccc3)CC2)cc1" equals 0.257

The recorded EC50 for entry "CCCNC[C@@H](O)c1oc2ccccc2c1CC" equals 11.5

The recorded EC50 for entry "O=C(c1ccccc1)c1ccccc1OC[C@@H](O)CN1CCN(C[C@@H](O)COc2ccccc2C(=O)c2ccccc2)CC1" equals 0.0525

***
The recorded EC50 for entry "CC(=O)c1cc(C)ccc1OC[C@H](O)CN1CCN(C(=O)Nc2ccc(C)cc2)CC1" equals 7.41

The recorded EC50 for entry "O=C(CCc1ccccc1)c1cccc(OC[C@H](O)CN2CCN(c3ccc(F)cc3)CC2)c1" equals 1.12

###

Reported log10 EC50 values, ATP-dependent translocase ABCB1 (Homo sapiens, UniProt P08183).
Please be aware that the numbers have been log10-transformed from EC50 in nM.

These recorded examples may help you get a feel for the data.
Observed log10 EC50, ATP-dependent translocase ABCB1 (Homo sapiens, UniProt P08183), "Cc1cccc(N2CCN(C[C@@H](O)COc3cccc(C(=O)CCc4ccccc4)c3)CC2)c1C" : 2.14

Observed log10 EC50, ATP-dependent translocase ABCB1 (Homo sapiens, UniProt P08183), "CC(=O)c1ccccc1OC[C@H](O)CN(C(C)C)C(C)C" : 4.00

Observed log10 EC50, ATP-dependent translocase ABCB1 (Homo sapiens, UniProt P08183), "Cc1c(C(=O)c2ccccc2)c(=O)n(-c2ccccc2)n1C[C@H](O)CN(C(C)C)C(C)C" : 4.20

Observed log10 EC50, ATP-dependent translocase ABCB1 (Homo sapiens, UniProt P08183), "CC(C)N(C[C@@H](O)COc1ccc(C(=O)CCc2ccccc2)cc1)C(C)C" : 2.96

Observed log10 EC50, ATP-dependent translocase ABCB1 (Homo sapiens, UniProt P08183), "Cc1ccc(C(=O)O[C@@H]2[C@H](N3CCCC3)c3ccccc3N[C@@H]2C)cc1" : 3.67

***
Observed log10 EC50, ATP-dependent translocase ABCB1 (Homo sapiens, UniProt P08183), "Cc1ccccc1N1CCN(C[C@@H](O)COc2ccccc2C(=O)CCc2ccc(Cl)cc2)CC1" : 1.28
